target: α1G T-type calcium channel (Homo sapiens); construct: host or cells: HEK293; assay: Assay for % inhibiting activity against T-type calcium channel using FDSS6000 (fluo-3 calcium imaging, KCl activation); format: cell-based; conditions: HEK293, 10 μM; HEK293 cells stably expressing α1G T-type calcium channel and Kir2.1; compounds of the examples; read-out: FDSS (% inhibition)/10uM
Sequence (O43497 whole entry): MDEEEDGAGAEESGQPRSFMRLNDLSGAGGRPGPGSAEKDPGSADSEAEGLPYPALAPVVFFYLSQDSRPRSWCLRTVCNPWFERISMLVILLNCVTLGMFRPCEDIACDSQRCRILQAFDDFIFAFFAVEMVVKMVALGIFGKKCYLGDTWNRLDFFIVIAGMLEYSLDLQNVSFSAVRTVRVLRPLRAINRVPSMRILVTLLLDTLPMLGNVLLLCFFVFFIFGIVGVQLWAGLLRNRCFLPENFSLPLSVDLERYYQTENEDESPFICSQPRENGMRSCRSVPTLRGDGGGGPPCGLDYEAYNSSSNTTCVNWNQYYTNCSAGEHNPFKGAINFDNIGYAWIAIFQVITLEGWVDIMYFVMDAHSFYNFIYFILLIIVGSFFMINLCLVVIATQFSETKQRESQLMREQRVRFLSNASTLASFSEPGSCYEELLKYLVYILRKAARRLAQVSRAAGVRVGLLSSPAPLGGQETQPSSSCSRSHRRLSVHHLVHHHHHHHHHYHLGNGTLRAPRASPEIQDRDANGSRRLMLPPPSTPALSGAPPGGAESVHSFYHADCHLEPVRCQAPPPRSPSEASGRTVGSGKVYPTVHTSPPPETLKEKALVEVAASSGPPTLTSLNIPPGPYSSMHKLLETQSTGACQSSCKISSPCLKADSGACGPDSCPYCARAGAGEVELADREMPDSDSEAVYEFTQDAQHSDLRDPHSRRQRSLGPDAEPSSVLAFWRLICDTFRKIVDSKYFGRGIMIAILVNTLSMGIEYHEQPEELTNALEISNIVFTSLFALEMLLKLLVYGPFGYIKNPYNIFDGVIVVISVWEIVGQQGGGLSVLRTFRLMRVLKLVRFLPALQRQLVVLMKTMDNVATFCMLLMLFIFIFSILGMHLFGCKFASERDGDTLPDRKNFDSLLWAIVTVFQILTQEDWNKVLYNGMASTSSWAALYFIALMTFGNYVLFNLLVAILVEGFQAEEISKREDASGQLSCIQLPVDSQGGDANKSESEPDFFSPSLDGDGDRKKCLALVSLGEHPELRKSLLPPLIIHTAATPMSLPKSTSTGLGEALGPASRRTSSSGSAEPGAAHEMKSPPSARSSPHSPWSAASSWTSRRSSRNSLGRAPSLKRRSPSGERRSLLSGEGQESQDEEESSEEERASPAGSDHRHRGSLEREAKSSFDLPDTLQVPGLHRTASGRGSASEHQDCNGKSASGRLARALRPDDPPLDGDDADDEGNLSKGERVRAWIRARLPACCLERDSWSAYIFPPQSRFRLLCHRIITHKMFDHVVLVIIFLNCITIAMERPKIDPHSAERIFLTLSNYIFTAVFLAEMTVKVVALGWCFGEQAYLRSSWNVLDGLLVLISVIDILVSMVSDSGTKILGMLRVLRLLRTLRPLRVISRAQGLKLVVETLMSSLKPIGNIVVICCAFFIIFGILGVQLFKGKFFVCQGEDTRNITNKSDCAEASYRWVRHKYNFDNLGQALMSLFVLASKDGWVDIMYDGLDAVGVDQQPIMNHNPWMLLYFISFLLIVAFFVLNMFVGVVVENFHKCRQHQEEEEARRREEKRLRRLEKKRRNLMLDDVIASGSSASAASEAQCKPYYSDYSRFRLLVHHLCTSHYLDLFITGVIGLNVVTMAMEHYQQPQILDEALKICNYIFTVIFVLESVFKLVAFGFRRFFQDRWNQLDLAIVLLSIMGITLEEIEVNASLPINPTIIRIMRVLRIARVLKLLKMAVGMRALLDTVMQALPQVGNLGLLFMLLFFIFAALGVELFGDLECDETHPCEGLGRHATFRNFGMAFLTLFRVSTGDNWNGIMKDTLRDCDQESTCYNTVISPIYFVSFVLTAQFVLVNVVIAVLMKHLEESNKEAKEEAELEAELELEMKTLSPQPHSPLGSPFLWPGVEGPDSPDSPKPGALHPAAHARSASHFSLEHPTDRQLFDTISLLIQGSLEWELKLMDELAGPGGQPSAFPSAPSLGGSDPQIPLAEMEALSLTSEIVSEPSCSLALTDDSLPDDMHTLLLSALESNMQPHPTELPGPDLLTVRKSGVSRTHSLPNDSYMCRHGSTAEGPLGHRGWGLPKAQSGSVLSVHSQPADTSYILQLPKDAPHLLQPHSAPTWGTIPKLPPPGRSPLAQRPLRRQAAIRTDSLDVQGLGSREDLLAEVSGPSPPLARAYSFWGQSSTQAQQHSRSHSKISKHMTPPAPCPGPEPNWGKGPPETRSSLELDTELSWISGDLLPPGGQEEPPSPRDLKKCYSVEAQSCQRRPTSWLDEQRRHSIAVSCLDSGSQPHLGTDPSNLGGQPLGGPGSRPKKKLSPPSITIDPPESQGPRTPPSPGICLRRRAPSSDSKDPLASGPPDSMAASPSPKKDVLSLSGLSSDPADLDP
Counter-ions that a name gives are not always drawn.
quantity: inhibition at 10 µM (%)

>>> value_measured("Cl.O=C(CC1CSC(=NC2CCCCC2)N1Cc1ccccc1)Nc1cc(Cl)ccc1F (centres unmarked) [KHG24408, hydrochloride]")
32.6

(I) CCCN1C(=NC2CCCCC2)SCC1CC(=O)Nc1ccc(C(F)(F)F)cc1.Cl (centres unmarked) [KHG24404, hydrochloride]
(II) CN1C(=NC2CCCCC2)SCC1CC(=O)Nc1cc(F)ccc1F (centres unmarked) [KHG24087, hydrochloride]
Input line: Which has the smaller recorded inhibition at 10 µM, I or II ? // output: label of the selected item
Output line: II
(II: 35.4%, I: 64.7%)

(A) CCN1C(=NC2CCCCC2)SCC1CC(=O)Nc1cc(C(F)(F)F)cc(C(F)(F)F)c1.Cl (centres unmarked) [KHG24261, hydrochloride]
(B) Cl.O=C(CC1CSC(=NC2CCCCC2)N1Cc1ccccc1)Nc1ccc(Br)cc1 (centres unmarked) [KHG24300, hydrochloride]
Input line: // pick min by inhibition at 10 µM: A , B Pick one; state its label.
Output line: B
(B: 36.7%, A: 65%)

(I) CN1C(=NC2CCCCCC2)SCC1C(=O)NCc1ccc(Cl)cc1.Cl (centres unmarked) [KHG24337, hydrochloride]
(II) CCCCN1C(=NC23CC4CC(CC(C4)C2)C3)SCC1CC(=O)Nc1ccc(C(C)C)cc1.Cl (centres unmarked) [KHG24795, hydrochloride]
Input line: Please let me know which one, I or II , has a lower measured inhibition at 10 µM value. Selection: enter the item's label.
Output line: II
(II: 33.7%, I: 56.6%)
